Biological target: T1, Human B7-H4 ECD-Flag-His10 (monomeric) (human, UniProt Q7Z7D3 25-259)
T1 construct: Minimally biotinylated for KinExA; also called hB7H4-ECD-Flag-His10; B7-H4-FLAG
T1 sequence: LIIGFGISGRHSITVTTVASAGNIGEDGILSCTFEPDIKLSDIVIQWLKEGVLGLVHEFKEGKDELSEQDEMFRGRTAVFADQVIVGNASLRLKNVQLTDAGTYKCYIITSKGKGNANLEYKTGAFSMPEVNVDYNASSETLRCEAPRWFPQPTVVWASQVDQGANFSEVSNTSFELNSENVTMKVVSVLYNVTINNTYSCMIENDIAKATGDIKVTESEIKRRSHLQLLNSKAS
Assay: Octet; summary table, rounded from Table 9 (hIgG1-TM)
Result Type: pKd
pKd here: minus log base 10 of the concentration, concentration in moles per litre.

Worked cases, pKd given:
| Binder | pKd |
| --- | --- |
| ZY0EPQ-E02 human IgG1-TM (antibody, V domains shown) VH: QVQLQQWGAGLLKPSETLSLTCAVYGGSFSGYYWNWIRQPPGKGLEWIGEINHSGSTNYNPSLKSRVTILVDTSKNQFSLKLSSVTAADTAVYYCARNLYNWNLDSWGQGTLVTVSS VL: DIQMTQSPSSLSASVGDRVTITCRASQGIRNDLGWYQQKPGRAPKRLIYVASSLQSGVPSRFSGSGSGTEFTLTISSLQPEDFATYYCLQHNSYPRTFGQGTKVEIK | 7.59 |
| ZY0EP0-C07 human IgG1-TM (antibody, V domains shown, also called ZY0EPO-C07) VH: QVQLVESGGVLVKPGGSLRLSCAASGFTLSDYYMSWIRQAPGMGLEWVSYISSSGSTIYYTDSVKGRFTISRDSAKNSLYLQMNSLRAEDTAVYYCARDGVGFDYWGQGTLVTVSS VL: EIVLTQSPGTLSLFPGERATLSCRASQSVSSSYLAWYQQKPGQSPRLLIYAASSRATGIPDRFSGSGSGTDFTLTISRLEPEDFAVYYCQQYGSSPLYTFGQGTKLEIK | 8.05 |
| ZY0EQD-E02 human IgG1-TM (antibody, V domains shown) VH: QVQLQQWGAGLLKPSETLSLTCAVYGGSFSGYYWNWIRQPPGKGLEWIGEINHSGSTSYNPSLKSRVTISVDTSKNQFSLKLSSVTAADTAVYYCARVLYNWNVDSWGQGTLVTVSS VL: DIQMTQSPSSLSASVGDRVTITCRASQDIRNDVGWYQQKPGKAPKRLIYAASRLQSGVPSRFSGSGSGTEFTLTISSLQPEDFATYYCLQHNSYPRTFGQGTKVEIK | 7.85 |

In the following, a different binder is considered.
Provide one value: measured pKd of ZY0EO5-E07 human IgG1-TM (antibody, V domains shown, also called ZY0E05-E07; E05-E07) VH: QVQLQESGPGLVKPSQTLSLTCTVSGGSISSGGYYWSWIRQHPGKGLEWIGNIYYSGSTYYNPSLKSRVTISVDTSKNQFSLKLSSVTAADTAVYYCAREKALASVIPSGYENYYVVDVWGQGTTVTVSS VL: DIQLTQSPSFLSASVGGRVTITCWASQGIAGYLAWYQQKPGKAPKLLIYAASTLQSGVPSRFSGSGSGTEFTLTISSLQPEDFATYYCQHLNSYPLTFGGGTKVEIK
7.70
